Give measured AUC(0-t) for each item. Keep answers brief.
# Assay info: Rat pharmacokinetic study of DZ2002
# Type: in vivo, Sprague-Dawley rats
# Test parameters: male, Sprague-Dawley, rat, blood, po, 25 mg/kg
State just the number; it will be interpreted in µM·h.

Lookup result for Nc1ncnc2c1ncn2CCC(O)C(=O)O (centres unmarked) [DZA] ; measured AUC(0-t): 18.1

So, COC(=O)[C@@H](O)CCn1cnc2c(N)ncnc21 [DZ2002] ? Its AUC(0-t) was 3.85

---

# Assay info: Rat pharmacokinetic study of DZ2002
# Assay type: in vivo, Sprague-Dawley rats
# Test parameters: male, Sprague-Dawley, rat, blood, iv, 5 mg/kg
Endpoint name: Vd (L/kg)
Dear colleague, please return just the value in L/kg, with no unit written.

Reported Vd for COC(=O)[C@@H](O)CCn1cnc2c(N)ncnc21 [DZ2002] was 4.5

---

Exercise: for every item that follows, state its recorded concentration at 5 min.
# Assay info: Rat pharmacokinetic study of DZ2002
# Assay type: in vivo, Sprague-Dawley rats
# Test parameters: male, Sprague-Dawley, rat, blood, iv, 5 mg/kg
Kindly format the answer as number then unit.

Measured concentration at 5 min of `COC(=O)[C@@H](O)CCn1cnc2c(N)ncnc21` : 2.46 µM

Record summary for Nc1ncnc2c1ncn2CCC(O)C(=O)O (centres unmarked) : reported concentration at 5 min = 15.3 µM

---

# Assay info: Rat pharmacokinetic study of DZ2002
# Format: in vivo, Sprague-Dawley rats
# Test parameters: female, Sprague-Dawley, rat, blood, po, 5 mg/kg
Provide the recorded AUC(0-inf) for the entries that follow.
Please report the result as a number followed by the unit.

Consider `COC(=O)[C@@H](O)CCn1cnc2c(N)ncnc21` . Its measured AUC(0-inf) is 0.985 µM·h

For Nc1ncnc2c1ncn2CCC(O)C(=O)O (centres unmarked) the compound record lists AUC(0-inf) as 4.36 µM·h

---

# Assay info: Rat pharmacokinetic study of DZ2002
# Assay type: in vivo, Sprague-Dawley rats
# Test parameters: female, Sprague-Dawley, rat, blood, po, 25 mg/kg
Endpoint name: Tmax (min)
State the answer as a number, implicitly in min.

Looking up Nc1ncnc2c1ncn2CCC(O)C(=O)O (centres unmarked) [DZA] , I see its Tmax listed as 11.4

Tmax measured on COC(=O)[C@@H](O)CCn1cnc2c(N)ncnc21 [DZ2002] = 4.8

---

# Assay info: Rat pharmacokinetic study of DZ2002
# Type: in vivo, Sprague-Dawley rats
# Test parameters: male, Sprague-Dawley, rat, blood, po, 25 mg/kg
Field: Tmax. Provide a value for each of the molecules that follow.
State the answer as a number, implicitly in min.

Record `COC(=O)[C@@H](O)CCn1cnc2c(N)ncnc21` , field Tmax: 8.4

The molecule Nc1ncnc2c1ncn2CCC(O)C(=O)O (centres unmarked) showed Tmax equal to 25.2

---

# Assay info: Rat pharmacokinetic study of DZ2002
# Type: in vivo, Sprague-Dawley rats
# Test parameters: male, Sprague-Dawley, rat, blood, po, 5 mg/kg
Endpoint name: MRT (min)
Give just the numeric value; min need not be written.

Data point: Nc1ncnc2c1ncn2CCC(O)C(=O)O (centres unmarked) ; MRT = 74.4

Lab note: `COC(=O)[C@@H](O)CCn1cnc2c(N)ncnc21` gave MRT of 40.2

---

# Assay info: Rat pharmacokinetic study of DZ2002
# Assay type: in vivo, Sprague-Dawley rats
# Test parameters: female, Sprague-Dawley, rat, blood, iv, 5 mg/kg
Endpoint name: Vd (L/kg)
Provide the reading as a plain figure in L/kg.

The compound identified as `COC(=O)[C@@H](O)CCn1cnc2c(N)ncnc21` registered its Vd at 4.59

---

Record form. Attribute: half-life. Fill in for each entry.
# Assay info: Rat pharmacokinetic study of DZ2002
# Format: in vivo, Sprague-Dawley rats
# Test parameters: female, Sprague-Dawley, rat, blood, iv, 5 mg/kg
// units = min; emit number, no label

Reported half-life of Nc1ncnc2c1ncn2CCC(O)C(=O)O (centres unmarked) : 73.2

So for `COC(=O)[C@@H](O)CCn1cnc2c(N)ncnc21` , the logged half-life turned out to be 9

---

# Assay info: Rat pharmacokinetic study of DZ2002
# Assay type: in vivo, Sprague-Dawley rats
# Test parameters: male, Sprague-Dawley, rat, blood, po, 10 mg/kg
Could you please report measured MRT for the items listed next?
Give the number; h is assumed, so skip it.

Form: compound = `COC(=O)[C@@H](O)CCn1cnc2c(N)ncnc21` ; MRT = 0.83

Input Nc1ncnc2c1ncn2CCC(O)C(=O)O (centres unmarked) . Output MRT: 1.31

---

# Assay info: Rat pharmacokinetic study of DZ2002
# Format: in vivo, Sprague-Dawley rats
# Test parameters: male, Sprague-Dawley, rat, blood, po, 25 mg/kg
Endpoint name: half-life (h)
Numeric answer only, unit h assumed.

Data point: Nc1ncnc2c1ncn2CCC(O)C(=O)O (centres unmarked) [DZA] ; half-life = 2.78

What the record says about COC(=O)[C@@H](O)CCn1cnc2c(N)ncnc21 [DZ2002] : half-life is 0.93

---

Could you please report measured AUC(0-t) for the items listed next?
# Assay info: Rat pharmacokinetic study of DZ2002
# Format: in vivo, Sprague-Dawley rats
# Test parameters: female, Sprague-Dawley, rat, blood, po, 25 mg/kg
Report field: quantity (unit follows the number).

In plain terms, COC(=O)[C@@H](O)CCn1cnc2c(N)ncnc21 [DZ2002] has a documented AUC(0-t) of 3.95 µM·h

Entry Nc1ncnc2c1ncn2CCC(O)C(=O)O (centres unmarked) [DZA] , AUC(0-t) reported as 17.6 µM·h
